# systemName: T1, human CLDN18.2 (human)
# T1 construct: also called huCLDN18.2; hCLDN18.2
# assayRemarks: flow cytometry titration, HEK293T cells overexpressing CLDN18.2
assayReadout: EC50 (µg/mL)
I only need the number, in µg/mL, no unit after it.

hCl1f (antibody, human IgG1, kappa, V domains shown, Humanized) VH: QVQLVQSGAEVKKPGASVKVSCKASGYTFTDYAMHWVRQAPGQRLEWMGWINAYTGKPTYAQKFQGRVTITRDTSASTAYMELSSLRSEDTAVYYCARAVFYGYTMDAWGQGTLVTVSS VL: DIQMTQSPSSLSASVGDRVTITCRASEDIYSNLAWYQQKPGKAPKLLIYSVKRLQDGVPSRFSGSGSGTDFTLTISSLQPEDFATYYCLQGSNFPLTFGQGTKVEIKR = 0.795

Please look up its EC50: IMAB362 (antibody, human IgG1, kappa, V domains shown, Control, chimeric IgG1, synthesized from the published chains; also called Claudiximab; Zolbetuximab) VH: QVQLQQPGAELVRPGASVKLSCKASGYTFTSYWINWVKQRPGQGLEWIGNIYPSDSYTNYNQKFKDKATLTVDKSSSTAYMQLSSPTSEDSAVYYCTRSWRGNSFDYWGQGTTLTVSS VL: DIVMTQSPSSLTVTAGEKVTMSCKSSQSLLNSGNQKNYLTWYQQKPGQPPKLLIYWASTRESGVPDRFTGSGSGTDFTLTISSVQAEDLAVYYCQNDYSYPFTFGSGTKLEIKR
0.388

Using the record for hCl1e (antibody, human IgG1, kappa, V domains shown, Humanized) VH: QVQLVQSGAEVKKPGASVKVSCKASGYTFTDYAMYWVRQAPGQRLEWMGWINTYTGKPTYAQKFQGRVTITRDTSASTAYMELSSLRSEDTAVYYCARAVFYGYTMDAWGQGTLVTVSS VL: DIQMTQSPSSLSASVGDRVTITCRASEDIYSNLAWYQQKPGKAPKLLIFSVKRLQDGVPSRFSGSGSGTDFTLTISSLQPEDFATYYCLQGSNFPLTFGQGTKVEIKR , report its EC50.
0.558

Bench note: what EC50 did hCl1j (antibody, human IgG1, kappa, V domains shown, Humanized) VH: QVQLVQSGAEVKKPGASVKVSCKASGYTFTDYAMYWVRQAPGQRLEWMGWINAYTGKPTYAQKFQGRVTITRDTSASTAYMELSSLRSEDTAVYYCARAVYYGYTMDAWGQGTLVTVSS VL: DIQMTQSPSSLSASVGDRVTITCRTSEDIYSNLAWYQQKPGKAPKLLIFAIKRLQDGVPSRFSGSGSGTDFTLTISSLQPEDFATYYCLQGSKFPLTFGQGTKVEIKR show?
0.408

Can you look up the measured EC50 of hCl1g (antibody, human IgG1, kappa, V domains shown, Humanized) VH: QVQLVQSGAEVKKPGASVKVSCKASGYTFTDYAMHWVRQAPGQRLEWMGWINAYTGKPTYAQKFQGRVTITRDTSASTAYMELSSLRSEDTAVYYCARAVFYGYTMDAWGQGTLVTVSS VL: DIQMTQSPSSLSASVGDRVTITCRTSEDIYSNFAWYQQKPGKAPKLLIYSVNRLQDGVPSRFSGSGSGTDFTLTISSLQPEDFATYYCLQGSKFPLTFGQGTKVEIKR for me?
0.678

Entry source: patent US20240034783A1
